- assay explanation: Stability of the working solution (4°C for 1 month)
- Assay type: physicochemical
- measurement context: 12.5 ng/mL
Assignment: determine reported Working solution Accuracy (%) for the given compounds.
Be sure to follow the number with its unit.

Suppose we examine the compound O=C1C[C@@H](c2ccc(O)cc2)Oc2cc(O)cc(O)c21 [naringenin] ; what Working solution Accuracy (%) value has been reported? 93.5%

Which Working solution Accuracy (%) value is on record for COc1ccc([C@@H]2CC(=O)c3c(O)cc(O[C@@H]4O[C@H](CO[C@@H]5O[C@@H](C)[C@H](O)[C@@H](O)[C@H]5O)[C@@H](O)[C@H](O)[C@H]4O)cc3O2)cc1O [hesperidin] ? 81.7%

Bench note: what Working solution Accuracy (%) did COc1ccc(-c2coc3cc(O[C@@H]4O[C@H](CO)[C@@H](O)[C@H](O)[C@H]4O)ccc3c2=O)cc1 [ononin] show? 87.5%

Please look up its Working solution Accuracy (%): C[C@@]12C[C@@]3(O)O[C@@H](O1)[C@]1(COC(=O)c4ccccc4)[C@H]3C[C@@]12O[C@@H]1O[C@H](CO)[C@@H](O)[C@H](O)[C@H]1O [paeoniflorin] 106.0%

Consider the compound O=C(/C=C/c1ccc(O[C@@H]2O[C@H](CO)[C@@H](O)[C@H](O)[C@H]2O)cc1)c1ccc(O)cc1O [isoliquiritin] and give its measured Working solution Accuracy (%). 110.0%

Could you share which Working solution Accuracy (%) value was measured for COc1cc(/C=C/C(=O)O)cc(OC)c1O [sinapic acid] ? 90.2%

// Working solution Accuracy (%) lookup, key: O=C(O)[C@H]1O[C@@H](Oc2cc(O)c3c(=O)cc(-c4ccc(O)cc4)oc3c2)[C@H](O)[C@@H](O)[C@@H]1O [apigenin-7-O-glucuronide] 112.0%

Record request: Working solution Accuracy (%) value, item COC(=O)C1=CO[C@@H](O[C@@H]2O[C@H](CO)[C@@H](O)[C@H](O)[C@H]2O)[C@H]2[C@@H]1C(=O)C[C@@H]2C [verbenalin] 83.3%

----------
Consider the following compounds; for each one, report its Tmax.
- assay explanation: Pharmacokinetic study in rat plasma after oral administration of QJYQ (UHPLC-sMRM)
- Format: in vivo, Sprague-Dawley rats
- measurement context: male, Sprague-Dawley, rat, plasma, po, 3.15 g/kg, rat plasma, oral QJYQ 3.15 g/kg, n = 8, mean ± SD; read-out: Tmax
Field format: number, assumed h, no unit text.

For COc1c(O)cc(O)c2c(=O)cc(-c3ccccc3)oc12 , what is its reported Tmax? 6.29

# query: Tmax of entry O=C(O)[C@H]1O[C@@H](Oc2cc3oc(-c4ccccc4)cc(=O)c3c(O)c2O)[C@H](O)[C@@H](O)[C@@H]1O 7.22

----------
I'd appreciate it if you could supply Working solution Accuracy (%) values for the items below.
- assay explanation: Stability of the working solution (4°C for 1 month)
- Format: physicochemical
- measurement context: 1.56 ng/mL
Respond numerically; units are % and should not be typed.

What does the data say about its Working solution Accuracy (%)? Entry: COc1c2c(cc3oc(CO)cc(=O)c13)O[C@H](C(C)(C)O)C2 [cimifugin] 90.5

Request the reported Working solution Accuracy (%) associated with O=c1cc(-c2ccc(O)cc2)oc2c([C@@H]3O[C@H](CO)[C@@H](O)[C@H](O)[C@H]3O)c(O)cc(O)c12 [vitexin] 95.6

Requested read-out: Working solution Accuracy (%). Entry: O=C1C[C@@H](c2ccc(O[C@@H]3O[C@H](CO)[C@@H](O)[C@H](O)[C@H]3O)cc2)Oc2cc(O)ccc21 [liquiritin] 99.4

For the compound shown here, COc1cc(/C=C/C(=O)O)cc(OC)c1O [sinapic acid] , give the reported Working solution Accuracy (%). 100.0

----------
- assay explanation: Pharmacokinetic study in rat plasma after oral administration of QJYQ (UHPLC-sMRM)
- Format: in vivo, Sprague-Dawley rats
- measurement context: rat, in vivo, po, 3.15 g/kg
- Method: Exion LC AD tandem Blueline 3500 triple quadrupole mass spectrometer (AB SCIEX, Framingham, MA, United States) was used to thirty-three compounds in rat plasma. […] The whole detailed parameters of sMRM were obtained in Supplementary Table S1. […] All the pharmacokinetic parameters were calculated using the DAS 1.0 software (Drug and Statistics 1.0, Medical College of Wannan, China). […] All data are expressed as mean ± standard deviation (SD). […]
Please respond with reported T1/2 for every item in the list.
Lab book: enter the figure in h, no units written.

Requested read-out: T1/2. Entry: COC(=O)C1=CO[C@@H](O[C@@H]2O[C@H](CO)[C@@H](O)[C@H](O)[C@H]2O)[C@H]2[C@@H]1C(=O)C[C@@H]2C 8.37

// lookup T1/2 for O=C(O)[C@H]1O[C@@H](Oc2cc(O)c3c(=O)cc(-c4ccc(O)cc4)oc3c2)[C@H](O)[C@@H](O)[C@@H]1O [apigenin-7-O-glucuronide] 4.17

Reported T1/2, molecule COc1cc(/C=C/C(=O)O)cc(OC)c1O : ____ 2.20

Consider the molecule shown here: COc1c(O[C@@H]2O[C@H](C(=O)O)[C@@H](O)[C@H](O)[C@H]2O)cc(O)c2c(=O)cc(-c3ccccc3)oc12 [wogonoside] What is its recorded T1/2? 2.67

----------
Please respond with reported Autosampler for 24 h Accuracy (%) for every item in the list.
- assay explanation: Stability of analytes in rat plasma (auto-sampler, freeze-thaw, room temperature, long-term)
- measurement context: autosampler 24 h, concentration 100 ng/mL
The answer consists of two parts: a number and, after it, its unit.

Look up Autosampler for 24 h Accuracy (%) for this compound: CC(=O)O[C@H]1[C@H](O[C@H]2CC[C@]34C[C@]35CC[C@]3(C)[C@@H]([C@@]6(C)CC[C@@H](C(C)(C)O)O6)[C@@H](O)C[C@@]3(C)[C@@H]5C[C@H](O[C@@H]3O[C@H](CO)[C@@H](O)[C@H](O)[C@H]3O)[C@H]4C2(C)C)OC[C@@H](O)[C@@H]1O [astragaloside II(IS)] 105.0%

Please give the measured Autosampler for 24 h Accuracy (%) for this compound: COc1c(O)cc(O)c2c(=O)cc(-c3ccccc3)oc12 102.0%

Given the entry COc1c2ccoc2c(OC)c2oc(=O)ccc12 , report its measured Autosampler for 24 h Accuracy (%). 98.6%

Reported Autosampler for 24 h Accuracy (%) for CC1(C)[C@@H](O[C@H]2O[C@H](C(=O)O)[C@@H](O)[C@H](O)[C@H]2O[C@@H]2O[C@H](C(=O)O)[C@@H](O)[C@H](O)[C@H]2O)CC[C@]2(C)[C@H]3C(=O)C=C4[C@@H]5C[C@@](C)(C(=O)O)CC[C@]5(C)CC[C@@]4(C)[C@]3(C)CC[C@@H]12 : what is it? 94.3%

----------
Answer each item with its documented Autosampler for 24 h Accuracy (%).
- assay explanation: Stability of analytes in rat plasma (auto-sampler, freeze-thaw, room temperature, long-term)
- measurement context: 500 ng/mL, autosampler 24 h
Report only the number, with the unit % understood.

Requested field: Autosampler for 24 h Accuracy (%). Item: C[C@@]12C[C@@]3(O)O[C@@H](O1)[C@]1(COC(=O)c4ccccc4)[C@H]3C[C@@]12O[C@@H]1O[C@H](CO)[C@@H](O)[C@H](O)[C@H]1O 92.0

Returns the measured Autosampler for 24 h Accuracy (%) for the input molecule. Input: O=C(O)[C@H]1O[C@@H](Oc2cc3oc(-c4ccc(O)cc4)cc(=O)c3c(O)c2O)[C@H](O)[C@@H](O)[C@@H]1O 101.0

Autosampler for 24 h Accuracy (%) lookup needed for O=C1C[C@@H](c2ccc(O[C@@H]3O[C@H](CO)[C@@H](O)[C@H](O)[C@H]3O)cc2)Oc2cc(O)ccc21 , thanks. 91.2

----------
- assay explanation: Pharmacokinetic study in rat plasma after oral administration of QJYQ (UHPLC-sMRM)
- Assay type: in vivo, Sprague-Dawley rats
- measurement context: male, Sprague-Dawley; rat plasma, oral QJYQ 3.15 g/kg, n = 8, mean ± SD; read-out: Cmax
Give measured Cmax for each item. Keep answers brief.
Output spec: scalar in ng/mL, unitless text.

Report Cmax for O=C(O)c1ccc(O)c(O)c1 please. 6.79

Name the reported Cmax value associated with the compound COc1ccc(/C=C/C(=O)O)cc1O 235

Reported Cmax for O=C(O)C=Cc1ccc(O)cc1 : what is it? 153

Using the record for O=C(O)[C@H]1O[C@@H](Oc2cc3oc(-c4ccccc4)cc(=O)c3c(O)c2O)[C@H](O)[C@@H](O)[C@@H]1O , report its Cmax. 4520

Name the reported Cmax value associated with the compound CC1(C)[C@@H](O[C@H]2O[C@H](C(=O)O)[C@@H](O)[C@H](O)[C@H]2O[C@@H]2O[C@H](C(=O)O)[C@@H](O)[C@H](O)[C@H]2O)CC[C@]2(C)[C@H]3C(=O)C=C4[C@@H]5C[C@@](C)(C(=O)O)CC[C@]5(C)CC[C@@]4(C)[C@]3(C)CC[C@@H]12 359
